details: in n-butyl acetate, 293.15 K
PROPERTY_LABEL: solubility (mole fraction)
In your answer, state the number alone without any accompanying words.

stdin: For the compound "CSCC[C@H](NC(=O)OCC1c2ccccc2-c2ccccc21)C(=O)O" , report solubility (mole fraction).
stdout: 0.0173

---

conditions: in acetone, 303.15 K
PROPERTY_LABEL: solubility (mole fraction)
In your answer, state the number alone without any accompanying words.

stdin: For the compound "CSCC[C@H](NC(=O)OCC1c2ccccc2-c2ccccc21)C(=O)O" , report solubility (mole fraction).
stdout: 0.0722

---

settings: in isopropanol, 293.15 K
PROPERTY_LABEL: solubility (mole fraction)
In your answer, state the number alone without any accompanying words.

stdin: For the compound "CSCC[C@H](NC(=O)OCC1c2ccccc2-c2ccccc21)C(=O)O" , report solubility (mole fraction).
stdout: 0.00792
